tested on: 301 cancer cell lines from different tumor types (OncoPanel; HD Biosciences); experiment: 2D cell viability inhibition assay (CellTiter-Glo) in cancer cell line panel; type: cell-based; conditions: Homo sapiens, NCI-H441, 168 h, NCIH441; lung, adenocarcinoma; 168 hours
readout-label: IC50

Endpoint output: IC50 of CC(C)c1ccc(N(C)c2ccc3c(c2)OCC[C@H]3CNc2cnccc2C(=O)O)cc1 . Value?
> 10 µM

----------
test system: 301 cancer cell lines from different tumor types (OncoPanel; HD Biosciences); assay: 2D cell viability inhibition assay (CellTiter-Glo) in cancer cell line panel; type: cell-based; details: Homo sapiens, THP-1, THP1 cell line
readout-label: pIC50
Just so you know, pIC50 here is -log10 of the concentration in molar units; reply with that number alone.

For the compound shown here, CC(C)c1ccc(N(C)c2ccc3c(c2)OCC[C@H]3CNc2cnccc2C(=O)O)cc1 , give the reported pIC50.
8.21

----------
test system: 301 cancer cell lines from different tumor types (OncoPanel; HD Biosciences); test: 2D cell viability inhibition assay (CellTiter-Glo) in cancer cell line panel; format: cell-based; details: Homo sapiens, GI-1, GI1 cell line
readout-label: IC50 (µM)
Lab book: enter the figure in µM, no units written.

Can you share its IC50? I mean this molecule: CC(C)c1ccc(N(C)c2ccc3c(c2)OCC[C@H]3CNc2cnccc2C(=O)O)cc1
0.287

----------
tested on: 301 cancer cell lines from different tumor types (OncoPanel; HD Biosciences); experiment: 2D cell viability inhibition assay (CellTiter-Glo) in cancer cell line panel; assay type: cell-based; conditions: Homo sapiens, NCI-H358, NCIH358 cell line
readout-label: IC50
Write down the value, and be sure its unit follows.

Reported IC50 for CC(C)c1ccc(N(C)c2ccc3c(c2)OCC[C@H]3CNc2cnccc2C(=O)O)cc1 [Compound 1] : what is it?
6.57 nM

----------
system: 301 cancer cell lines from different tumor types (OncoPanel; HD Biosciences); assay: 2D cell viability inhibition assay (CellTiter-Glo) in cancer cell line panel; assay type: cell-based; conditions: Homo sapiens, HT-1080, HT1080 cell line
readout-label: IC50 (µM)
Expressed in µM, but write only the number.

# query: IC50 of entry CC(C)c1ccc(N(C)c2ccc3c(c2)OCC[C@H]3CNc2cnccc2C(=O)O)cc1
0.0141

----------
Tested on: 301 cancer cell lines from different tumor types (OncoPanel; HD Biosciences)
Test: 2D cell viability inhibition assay (CellTiter-Glo) in cancer cell line panel
Assay type: cell-based
Conditions: Homo sapiens, TE-6, TE6 cell line
Description: In a larger screening study, compound 1 was evaluated across a broad cancer cell line panel (OncoPanel; HD Biosciences) composed of 301 cancer cell lines from different tumor types. 2D cell viability inhibition assays were performed in multiwell plates seeded with cells from the panel. […] Cultures were incubated for 168 hours after which the number of viable cells in each test well was assessed using the CellTiter-Glo® Luminescent Cell Viability Assay. […]
readout-label: pEC50
The meaning of pEC50 here: minus log10 of the concentration in molar units.

Request the reported pEC50 associated with CC(C)c1ccc(N(C)c2ccc3c(c2)OCC[C@H]3CNc2cnccc2C(=O)O)cc1
8.32

----------
system: 301 cancer cell lines from different tumor types (OncoPanel; HD Biosciences); test: 2D cell viability inhibition assay (CellTiter-Glo) in cancer cell line panel; format: cell-based; settings: Homo sapiens, Hs-578T, HS578T cell line
readout-label: pIC50
Schema: pIC50 number; meaning minus log10 of the concentration expressed in molar units.

Please report the recorded pIC50 for CC(C)c1ccc(N(C)c2ccc3c(c2)OCC[C@H]3CNc2cnccc2C(=O)O)cc1 .
7.86

Origin of the recorded values: patent US20250134874A1
